# maps each entry to its GI50
tested on: PC-3; assay: NCI tumour cell line growth inhibition, 48 h
Calls of active or inactive are those of the source. Rule as the data show it: active = GI50 up to about 1.1 µM and inactive = higher.

Worked set:
Cc1cc2c(cc1C)[n+]([O-])c(C(=O)/C=C/c1ccc3c(c1)OCO3)c(C)[n+]2[O-]
> 100 µM (inactive)
CCOC(=O)C(COS(C)(=O)=O)(COS(C)(=O)=O)C(=O)OCC
> 100 µM (inactive)
C/C(=N\NC(=S)Nc1ccc([N+](=O)[O-])cc1)c1nc2cccnc2[nH]1
1.24 µM (inactive)

Let's switch to this molecule now.
Lab note: record GI50 of COc1ccc2c(c1OC)C(=O)N1C2=Cc2c(cc3c(c2OC)OCO3)CC1N(C)C (centres undefined) tested on PC-3.
30.9 µM (inactive)
